tested on: UO-31 renal; assay: NCI tumour cell line growth inhibition, 48 h
Listed here: items and their measured TGI.

molecule	TGI
O=c1[nH]c(=S)[nH]c2c1C(c1ccc([N+](=O)[O-])cc1)c1c([nH]c(=S)[nH]c1=O)O2	> 100 µM
CC(=O)/C=C/C1=C(C)CCCC1(C)CC(C)C (stereo not drawn)	> 100 µM
Cc1ccc(-c2csc(=Nc3ccccc3)n2NC(=O)c2ccncc2)cc1	> 100 µM
COc1cccc(C2SC(N)=Nc3c2c(C)nn3C(=O)c2ccccc2O)c1 (stereo not drawn)	> 10 µM
CCCCCCCCCCCCC(O)c1ccc(C#CCCCCCCCCCO)o1 (stereo not drawn)	38.5 µM
CCc1c(OC(C)=O)c2c(NC3OCC(OC(C)=O)C(OC(C)=O)C3OC(C)=O)nc(SC)nc2oc1=O (stereo not drawn)	> 100 µM
C[C@]12CCC3C4=C(CCC3C1CCC2=O)C(=O)[C@H]1O[C@H]1C4=O (stereo partly drawn)	5.1 µM
O=C(/C=C/c1ccc2c(c1)OCO2)c1ccc(O)cc1	26.2 µM
C=CC[C@H](C[C@H](C[C@H](C[C@H](C[C@H](C[C@H](C[C@H](C[C@H](C[C@H](C[C@H](CCCCC)OC)OC)OC)OC)OC)OC)OC)OC)OC)OC	> 100 µM
Nc1c(-c2ccc(Cl)c(Cl)c2)c2ccc([N+](=O)[O-])cc2c(=O)n1-c1nc2ccccc2s1	18.1 µM
Cc1cc(I)cc(CN(CCCN(C)C)C(C)C)c1O	32.6 µM
CC(=O)O/N=C(/C)c1ccccc1O	> 100 µM
Cc1ccccc1C(=N)c1ccccc1Cc1cccc2ccccc12	> 100 µM
CCCOc1cc2ccccc2cc1C(=O)Nc1nc(N)c2c(ccc3nccc32)[nH]1	2.4 µM
N#CC(NCc1cccc(CNC(C#N)c2ccccc2)c1)c1ccccc1 (stereo not drawn)	> 100 µM
Cc1ccc(NC(=O)c2ccc(OP(=O)(O)Nc3ccc(C)cc3)cc2)cc1	> 100 µM
CCOC(=O)C1=C(C(=O)OCC)C2c3ccccc3C=CN2C(C(=O)OCC)=C(SC)S1 (stereo not drawn)	> 100 µM
CC1=C(Cl)C=CP(=O)(Oc2ccccc2)C1 (stereo not drawn)	> 100 µM
COc1ccc(CCN=C2NC(=O)/C(=C/c3ccc4ncccc4c3)S2)cc1	> 25 µM
CC(=O)N(C(=O)CC(=O)N1N=C(c2ccccc2)C(N=Nc2ccccc2[N+](=O)[O-])C1=O)c1ccc(Cl)cc1 (stereo not drawn)	> 10 µM
CCCCOC(=O)Nc1ccc(S(=O)(=O)Nc2ccccc2Cl)cc1	80 µM
Cn1c2ccc3cc2c(=S)c2cc(ccc21)OCCOCCOCCOCCOCCOCCO3	> 10 µM
O=C(Nc1ccccc1-c1nn(C(=S)Nc2ccccc2)c(=S)n(C(=S)Nc2ccccc2)c1=O)C(F)(F)F	50.3 µM
CC(=O)Oc1cccc2c1C(=O)CCCC2	> 100 µM
NC(N)=Nc1ccc(CC(N)NCC(=O)O)cc1 (stereo not drawn)	> 25 µM
O=C(N/N=C/c1ccc(Cl)cc1)c1c(Cl)c(Cl)c(Cl)c(Cl)c1-c1nc2ccccc2[nH]1	> 100 µM
Cc1cccc(Cn2c3c(c4cc(O)ccc42)C(=O)c2ccccc2C3=O)c1	> 100 µM
CC(=O)OCCOCNC(=S)N/N=C(\C)c1cnccn1	> 100 µM
CC(C)[C@@H]1C=C2CC[C@H]3[C@](C)(CN)CCC[C@]3(C)[C@H]2CC1	16.1 µM
CC1SC(c2ccc(F)cc2)N(NC(=O)C(O)c2ccccc2)C1=O (stereo not drawn)	> 100 µM
CN(C)CC1CC/C(=C\c2ccc(O)cc2)C1=O (stereo not drawn)	26.5 µM
CCn1c(-c2nonc2N)nc2c(C#CC(C)(C)O)nc(OC[C@@H](N)c3ccccc3)cc21	9.4 µM
COc1ccc2nc3cc(Cl)ccc3c(NCCNCC(C)O)c2c1 (stereo not drawn)	4.85 µM
O=C1CN(c2cccc(Cl)c2)C(=O)CN1CCN1CC(=O)N(c2cccc(Cl)c2)CC1=O	> 100 µM
O=C(/C=C/c1ccc(O)cc1)c1ccc(O)cc1	51.2 µM
COc1ccc(-n2c(C)nc3ccc(NC(=S)Nc4ccccc4)cc3c2=O)cc1	> 100 µM
Oc1ccc2c(c1)c1c(n2CCN2CCOCC2)-c2ccccc2CC1	> 100 µM
c1ccc(Sc2ncnc3ccccc23)cc1	21.1 µM

###

Listed here: items and their measured TGI.
test system: SF-268 CNS; test: NCI tumour cell line growth inhibition, 48 h

compound	TGI
O=S(=O)(c1ccccc1)c1cccc2c1NCCC2	> 100 µM
COc1ccc(C)cc1-c1cc(Sc2ccccc2)c(-c2cc(C)ccc2OC)o1	> 31.6 µM
COc1cccc(C(=O)NC(c2ccc(C)cc2)c2cc(Cl)c3cccnc3c2O)c1 (stereo not given)	12.4 µM
CC1(C)OC1COc1c2occc2cc2ccc(=O)oc12 (stereo not given)	> 100 µM
COc1ccc(C2[C@@H](c3ccccc3)C(=O)N2c2cc(OC)c(OC)c(OC)c2)cc1F (stereo not given in full)	> 100 µM
N#Cc1c[nH]n2c(N=Nc3ccc(Cl)cc3)c(O)nc12	77.4 µM
CN(C)CCn1c2c3ccccc3ccc2c2oc(=O)c3ccccc3c21	7.86 µM
COC(=O)c1c(C)nc2c1cc(O)c1[nH]c(C)c(C)nc12	> 100 µM
CCCCCCCC/C=C\CCCCCCCCCCCC(=O)O	> 125 µM
C[C@]12CCC3c4ccc(O)cc4CCC3C1CC[C@@]2(O)CNC(=O)/C=C/c1ccc(O)c(O)c1 (stereo not given in full)	> 100 µM
[N-]=[N+]=NC(c1ccccc1)(c1ccccc1)c1ccccc1	35.7 µM
Oc1ccccc1CNCc1nc2ccccc2[nH]1	> 100 µM
COc1ncc(/C=C2\OC(=O)c3ccccc32)c(OC)n1	> 100 µM
O=C(/C=C/c1ccc2c(c1)OCO2)Cc1nc2ncccc2[nH]c1=O	> 100 µM
O=C(/C=C/c1ccc2c(c1)OCO2)c1ccc(O)cc1	> 100 µM
CCOC(=O)C1=C(C)N(c2ccc(F)cc2F)[C@]2(C#N)C(O)=C(Cl)C(Cl)=C(O)[C@]12C#N	> 100 µM
CC(=O)c1c2c(c3ccccc3c1O)O[C@@H]1OCC[C@H]21	> 100 µM
Cc1ccc(-c2csc(=Nc3ccccc3)n2NC(=O)c2ccncc2)cc1	> 100 µM
Nc1ncnc2c1[nH]c(=O)n2-c1ccccc1	> 100 µM
O=C(O)c1nc2nc(Cl)c(Cl)nc2[nH]1	> 100 µM
CC(C)(C)c1cc2c(O)c3cccc4c(=O)c5cccc6c5-c(c34)c2c(c1)c6=O	> 100 µM
O=C(NCc1ccccc1)c1n[nH][nH]c1=O	> 100 µM
CC(=O)Nc1nc(NC(C)=O)c2[nH]c(CO)nc2n1	> 100 µM
Cc1ccc(NC(=O)c2ccc(OP(=O)(O)Nc3ccc(C)cc3)cc2)cc1	> 100 µM
CCN(Cc1ccc(F)cc1)c1cc(Cl)c(CO)c(Cl)c1	27.7 µM

###

system: BT-549 breast; experiment: NCI tumour cell line growth inhibition, 48 h

molecule	testSystem	TGI
COc1ccc(/C=N/NC(=O)c2cccc3cc[nH]c23)cc1O	BT-549 breast	> 78.8 µM
COCCOc1ccc(-c2nc3ccc(-c4nc5ccc(N6CCN(C)CC6)cc5[nH]4)cc3[nH]2)cc1	BT-549 breast	3.96 µM
Cc1ccccc1OC(C)C(=O)NN1C(=O)CSC1c1ccccc1 (centres undefined)	BT-549 breast	> 100 µM
C[C@]12CC[C@H](O)CC1=CC[C@@H]1[C@@H]2CC[C@]2(C)C(=N/N)/C(=N\O)C[C@@H]12	BT-549 breast	> 100 µM

###

Listed here: items and their measured TGI.
test system: SNB-19 CNS; experiment: NCI tumour cell line growth inhibition, 48 h

compound	TGI
CCC(=O)NC(Nc1cc(C)on1)(C(F)(F)F)C(F)(F)F	> 100 µM
COc1cccc(-c2nc(-c3ccc(NC(=O)OC(C)C)cc3)[nH]c2-c2ccnc(Br)c2)c1	> 100 µM
C=C1C(=O)O[C@H]2[C@H]1CC/C(COC(=O)NCc1ccc(Cn3c(=O)sn(-c4ccc(OC)cc4)c3=O)cc1)=C\CC[C@@]1(C)O[C@@H]21	24.6 µM
O=c1c(-c2ccccc2)c2oc(c1-c1ccccc1)CSCc1cccc(c1)CSC2	> 100 µM
COc1ccc(-n2c(C)nc3ccc(NC(=S)Nc4ccccc4)cc3c2=O)cc1	> 100 µM
Nc1c(S(=O)(=O)O)cc2cc(S(=O)(=O)O)ccc2c1N=Nc1ccc(-c2ccc(N=Nc3c(N)c(S(=O)(=O)O)cc4cc(S(=O)(=O)O)ccc34)c(S(=O)(=O)O)c2)cc1	> 100 µM
C=CC[C@H](C[C@H](C[C@H](C[C@H](C[C@H](C[C@H](C[C@H](C[C@H](C[C@H](C[C@H](CCCCC)OC)OC)OC)OC)OC)OC)OC)OC)OC)OC	> 100 µM
COc1ccc(/C=N/NC(=O)c2cccc3cc[nH]c23)cc1O	> 100 µM
Cc1ccc(-n2c3nc(=O)[nH]c(=O)c-3cc3cc([N+](=O)[O-])ccc32)cc1	74 µM
CC(=O)/C=C/C1=C(C)CCCC1(C)CC(C)C (stereo not given)	> 100 µM
CCOC(=O)C1=C(C(=O)OCC)C2c3ccccc3C=CN2C(C(=O)OCC)=C(SC)S1 (stereo not given)	> 100 µM
COc1ccc2cc1Oc1ccc(cc1)C[C@H]1c3cc(c(OC)cc3CCN1C)Oc1c(O)c(OC)cc3c1[C@H](C2)N(C)CC3	134 µM
CCOP(=O)(OCC)C(F)(F)c1ccc(CC(NC(=O)OC(C)(C)C)C(=O)O)cc1 (stereo not given)	> 10 µM
COc1cc(C2CC(C)(O)Oc3cc4c(cc32)OCO4)cc(OC)c1OC (stereo not given)	> 100 µM
Nc1n[nH]c2cccc(C#Cc3cccc(C(=O)Nc4ccc(CN5CCOCC5)c(C(F)(F)F)c4)c3)c12	35.5 µM
